System: LU124OXAHIp2 cells
method.notes: Oxaliplatin sensitivity, Cell Titer Glo dose response
Format: cell-based, human
condition.notes: seven days in culture, oxaliplatin-resistant line
quantity.kind: IC50

Entry O=C1[O][Pt]2([NH][C@@H]3CCCC[C@H]3[NH]2)[O]C1=O , LU124OXAHIp2 cells data, IC50 value: 2000 to 2500 nM
